TEST_NAME: Drug level in Tg2576 mouse plasma at 200 umol/kg, po after 3 hrs
Type: ADME, organism-based
TEST_CONTEXT: read-out: Drug uptake
Give measured concentration at 3 h for each item. Keep answers brief.
Express your answer in µM, writing the number without its unit.

stdin: Read off the recorded concentration at 3 h for CCN(CCCn1ccnc1)C(=O)OC[C@@H](C)N(c1cc(Cl)ccc1Cl)S(=O)(=O)c1ccc(Cl)cc1
stdout: 98.9

stdin: Give a short answer stating reported concentration at 3 h for CCN(CCCn1ccnc1)C(=O)OC[C@@H](C)N(c1cc(Cl)ccc1CO)S(=O)(=O)c1ccc(Cl)cc1 .
stdout: 0.73

stdin: Check the records and state concentration at 3 h for C[C@H](COC(=O)N(CCCn1ccnc1)CC1CC1)N(c1cc(Cl)ccc1CO)S(=O)(=O)c1ccc(Cl)cc1
stdout: 6.83

---

EXPERIMENTAL_SYSTEM: Gamma-secretase
TEST_NAME: Inhibition of gamma secretase in human H4 cells assessed as reduction in amyloid beta40 level by ELISA
MEASURED_ENDPOINT: pIC50
Reminder that pIC50 means the negative base-10 logarithm of the concentration expressed in mol/L.

stdin: Query pIC50 for C[C@H](COC(=O)NC(C)(C)C)N(c1cc(Cl)ccc1CO)S(=O)(=O)c1ccc(Cl)cc1
stdout: 7.92

stdin: Supply reported pIC50 belonging to this compound: CCNC(=O)OC[C@@H](C)N(c1cc(Cl)ccc1CO)S(=O)(=O)c1ccc(Cl)cc1
stdout: 8.00

stdin: Determine from records and report pIC50 for CCN(CCCn1ccnc1)C(=O)OC[C@@H](C)N(c1cc(Cl)ccc1Cl)S(=O)(=O)c1ccc(Cl)cc1
stdout: 9.57

stdin: Report measured pIC50; entry is CC(C)NC(=O)OC[C@@H](C)N(c1cc(Cl)ccc1CO)S(=O)(=O)c1ccc(Cl)cc1
stdout: 7.92

stdin: Look up and state reported pIC50 for C[C@H](COC(=O)N(C)CCCn1ccnc1)N(c1cc(Cl)ccc1Cl)S(=O)(=O)c1ccc(Cl)cc1
stdout: 9.32

stdin: Tell us which pIC50 value is on record for C[C@H](COC(=O)N(CCCn1ccnc1)CC1CC1)N(c1cc(Cl)ccc1CO)S(=O)(=O)c1ccc(Cl)cc1
stdout: 10.22

stdin: Please report pIC50 for the following compound: C[C@H](COC(=O)NCCCn1ncnn1)N(c1cc(Cl)ccc1CO)S(=O)(=O)c1ccc(Cl)cc1
stdout: 8.68

stdin: Supply recorded pIC50 for C[C@H](COC(=O)NC1CCCCC1)N(c1cc(Cl)ccc1CO)S(=O)(=O)c1ccc(Cl)cc1 here.
stdout: 8.25

---

Can you tell me IC50 for the items I'm about to list?
EXPERIMENTAL_SYSTEM: Gamma-secretase
TEST_NAME: Inhibition of gamma secretase in human H4 cells assessed as reduction in amyloid beta40 level by ELISA
Be sure to follow the number with its unit.

stdin: # return IC50 of C[C@H](COC(=O)N1CCCC1)N(c1cc(Cl)ccc1CO)S(=O)(=O)c1ccc(Cl)cc1 (system: Gamma-secretase)
stdout: 1.8 nM

stdin: Provide measured IC50 on Gamma-secretase for C[C@H](CCOC(=O)NCCn1ccnc1)N(c1cc(Cl)ccc1CO)S(=O)(=O)c1ccc(Cl)cc1 please.
stdout: 4 nM

stdin: Give Gamma-secretase IC50 for the following molecule: CCC(C)NC(=O)OC[C@@H](C)N(c1cc(Cl)ccc1CO)S(=O)(=O)c1ccc(Cl)cc1 (some centres undefined)
stdout: 15 nM

stdin: For Gamma-secretase, give IC50 of the listed molecule: C[C@H](COC(=O)NCCn1ccnc1)N(c1cc(Cl)ccc1CO)S(=O)(=O)c1ccc(Cl)cc1
stdout: 0.93 nM
